# credit: patent US11613545B2

System: P-gp (human MDR1)
Assay Method Text: In vitro permeability test in MDR1-MDCK II cells (bidirectional transport)
Assay type: in vitro ADME, canine
Cond: dog, B to A, read-out: Penetration rate B to A
Readout Label: Papp B→A at 150 min, 2 μM (×10⁻⁶ cm/s)
Express your answer in ×10⁻⁶ cm/s, writing the number without its unit.

C=CCn1c(=O)c2cnc(Nc3ccc(N4CCN(C)CC4)cc3)nc2n1-c1cccc(C(C)(C)O)n1 [AZD1775, reference compound]; 29.3

Inquiry: Papp B→A at 150 min, 2 μM lookup needed for CN1CCN(c2ccc(Nc3ncc4c(=O)n5n(c4n3)-c3cccc(n3)C(C)(O)CC/C=C\C5)cc2)CC1 (single isomer, unassigned) [Compound 1] , thanks.
Reply text: 17.4

###

Assay Method Text: Pharmacokinetic evaluation in plasma after single intravenous and single oral administration
Assay type: in vivo
Cond: mouse, female Balb/c Nude mice, 1 mg/kg intravenous, 10 mg/kg oral study, read-out: Concentration integral AUC
Source text: Twelve mice (provided by Lingchang Biotech) were randomly divided into two groups, 6 females in each group, and samples were collected by cross blood collection. […]
Readout Label: AUC (µM·h)
Express your answer in µM·h, writing the number without its unit.

Inquiry: AUC lookup needed for CN1CCN(c2ccc(Nc3ncc4c(=O)n5n(c4n3)-c3cccc(n3)C(C)(O)CC/C=C\C5)cc2)CC1 (single isomer, unassigned) , thanks.
Reply text: 6.04

###

Assay Method Text: Pharmacokinetic evaluation in plasma after single intravenous and single oral administration
Type: in vivo
Cond: mouse, female Balb/c Nude mice, 1 mg/kg intravenous, 10 mg/kg oral study, read-out: Clearance rate
Readout Label: clearance (mL/min/kg)
Express your answer in mL/min/kg, writing the number without its unit.

Inquiry: clearance lookup needed for CN1CCN(c2ccc(Nc3ncc4c(=O)n5n(c4n3)-c3cccc(n3)C(C)(O)CC/C=C\C5)cc2)CC1 (single isomer, unassigned) , thanks.
Reply text: 33.5

###

Assay Method Text: Pharmacokinetic evaluation in plasma after single intravenous and single oral administration
Assay type: in vivo
Cond: mouse, po, female Balb/c Nude mice, 10 mg/kg by gavage vs 1 mg/kg intravenous, read-out: Bioavailability F
From the text: Twelve mice (provided by Lingchang Biotech) were randomly divided into two groups, 6 females in each group, and samples were collected by cross blood collection. […]
Readout Label: bioavailability (%)
Express your answer in %, writing the number without its unit.

Inquiry: bioavailability lookup needed for CN1CCN(c2ccc(Nc3ncc4c(=O)n5n(c4n3)-c3cccc(n3)C(C)(O)CC/C=C\C5)cc2)CC1 (single isomer, unassigned) [Compound 1] , thanks.
Reply text: 62.4

###

The reader will find reported Papp A→B at 150 min, 2 μM values listed item by item below.
Tested on: P-gp (human MDR1)
Assay Method Text: In vitro permeability test in MDR1-MDCK II cells (bidirectional transport)
Format: in vitro ADME, canine
Cond: dog, A to B, read-out: Penetration rate A to B
Description: The study used MDR1-MDCK II cells authorized by Piet Borst laboratory of the Netherlands Cancer Institute, which are a kind of Madin-Darby canine kidney cells transfected with human multi-drug resistance gene (MDR1). […] After vortexing, all samples were centrifuged at 3,220 g for 10 minutes. An appropriate volume of supernatant was transferred to the sample analysis plate, and analyzed by LC/MS/MS. If samples were not analyzed immediately after sealing, they were store at 2-8° C. […]

CN1CCN(c2ccc(Nc3ncc4c(=O)n5n(c4n3)-c3cccc(n3)C(C)(O)CC/C=C\C5)cc2)CC1 (single isomer, unassigned); 45.5 nm/s

Continue with the molecule presented below.
Inquiry: Papp A→B at 150 min, 2 μM lookup needed for C=CCn1c(=O)c2cnc(Nc3ccc(N4CCN(C)CC4)cc3)nc2n1-c1cccc(C(C)(C)O)n1 [AZD1775, reference compound] , thanks.
Reply text: 28.3 nm/s

###

System Name: Wee1 (Homo sapiens, UniProt P30291)
Construct: purchased Eurofins
Sequence (P30291 whole entry): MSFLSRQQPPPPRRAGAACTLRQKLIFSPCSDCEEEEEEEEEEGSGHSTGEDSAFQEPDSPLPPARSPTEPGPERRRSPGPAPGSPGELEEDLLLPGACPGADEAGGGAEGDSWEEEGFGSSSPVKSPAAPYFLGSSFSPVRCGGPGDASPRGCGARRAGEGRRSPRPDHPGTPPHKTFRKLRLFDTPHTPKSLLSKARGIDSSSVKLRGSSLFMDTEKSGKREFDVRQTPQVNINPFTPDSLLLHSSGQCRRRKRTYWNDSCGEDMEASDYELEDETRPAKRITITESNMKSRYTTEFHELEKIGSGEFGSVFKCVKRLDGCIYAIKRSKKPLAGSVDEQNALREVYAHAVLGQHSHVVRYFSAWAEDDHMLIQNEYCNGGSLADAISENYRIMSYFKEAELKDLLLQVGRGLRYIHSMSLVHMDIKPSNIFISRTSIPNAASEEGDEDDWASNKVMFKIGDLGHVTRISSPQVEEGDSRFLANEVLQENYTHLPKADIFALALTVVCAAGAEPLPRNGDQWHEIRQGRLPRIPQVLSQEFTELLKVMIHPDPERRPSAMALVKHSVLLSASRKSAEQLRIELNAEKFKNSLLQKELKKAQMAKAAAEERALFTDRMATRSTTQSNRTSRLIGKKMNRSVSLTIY
Assay Method Text: In vitro enzymatic inhibitory activity, Wee1 kinase (Eurofins, [γ-33P]-ATP filter assay)
Type: biochemical
Cond: 10 μM [γ-33P]-ATP, 40 min at room temperature
Readout Label: IC50 (nM)
Express your answer in nM, writing the number without its unit.

Solved entries:
CN1CCCN(c2ccc(Nc3ncc4c(=O)n5n(c4n3)-c3cccc(n3)C(C)(O)CC/C=C\C5)cc2)CC1 (centres unmarked); 49
C[C@@]1(O)CC/C=C\Cn2c(=O)c3cnc(Nc4ccccc4)nc3n2-c2cccc1n2; 59
COc1cccc(Nc2ncc3c(=O)n4n(c3n2)-c2cccc(n2)[C@](C)(O)CC/C=C\C4)c1; 60
C[C@]1(O)CC/C=C\Cn2c(=O)c3cnc(Nc4ccc(F)cc4)nc3n2-c2cccc1n2; 323
C[C@@]1(O)CC/C=C\Cn2c(=O)c3cnc(Nc4ccc(OC5CC5)cc4)nc3n2-c2cccc1n2; 35

Inquiry: IC50 lookup needed for CN(C)C1CCN(c2ccc(Nc3ncc4c(=O)n5n(c4n3)-c3cccc(n3)C(C)(O)CC/C=C\C5)cc2)CC1 (centres unmarked) , thanks.
Reply text: 41

Inquiry: IC50 lookup needed for "C[C@@]1(O)CC/C=C\Cn2c(=O)c3cnc(Nc4ccc(Cl)cc4)nc3n2-c2cccc1n2" , thanks.
Reply text: 54

Inquiry: IC50 lookup needed for CN1CCC2(CC1)CCN(c1ccc(Nc3ncc4c(=O)n5n(c4n3)-c3cccc(n3)C(C)(O)CC/C=C\C5)cc1)CC2 (centres unmarked) , thanks.
Reply text: 54

Inquiry: IC50 lookup needed for CC1(O)CC/C=C\Cn2c(=O)c3cnc(Nc4ccc(N5CCC(F)(F)CC5)cc4)nc3n2-c2cccc1n2 (centres unmarked) , thanks.
Reply text: 42

Inquiry: IC50 lookup needed for "CN1CCc2ccc(Nc3ncc4c(=O)n5n(c4n3)-c3cccc(n3)[C@@](C)(O)CC/C=C\C5)cc2C1" , thanks.
Reply text: 37

Inquiry: IC50 lookup needed for CN1CCN(c2ccc(Nc3ncc4c(=O)n5n(c4n3)-c3cccc(n3)C(C)(O)CC/C=C\C5)cc2)CC1 (single isomer, unassigned) , thanks.
Reply text: 29

Inquiry: IC50 lookup needed for "CN1CCN(c2cccc(Nc3ncc4c(=O)n5n(c4n3)-c3cccc(n3)[C@](C)(O)CC/C=C\C5)c2)CC1" , thanks.
Reply text: 116

Inquiry: IC50 lookup needed for "CN(C)CCOc1ccc(Nc2ncc3c(=O)n4n(c3n2)-c2cccc(n2)[C@@](C)(O)CC/C=C\C4)cc1" , thanks.
Reply text: 72

Inquiry: IC50 lookup needed for "C[C@@]1(O)CC/C=C\Cn2c(=O)c3cnc(Nc4ccc(N5CCC(F)(F)CC5)cc4)nc3n2-c2cccc1n2" , thanks.
Reply text: 16
